I'd be grateful if you could share measured glycan array binding signal (z-score) for these entries.
Biological target: Gal(b1-4)GlcNAc(b1-3)[Gal(b1-4)GlcNAc(b1-6)]Gal(b1-4)GlcNAc
Assay: glycan array binding signal (z-score within array); higher = stronger binding
Details: glycan notation: IUPAC condensed, linker removed
The entries come from a sample that favours the strongest signals as a whole.
Answers are plain numbers.

NKp30 (Homo sapiens), O14931 (protein) MAWMLLLILIMVHPGSCALWVSQPPEIRTLEGSSAFLPCSFNASQGRLAIGSVTWFRDEVVPGKEVRNGTPERFGRLAPLASSRFLHDHQAELHIRDVRGHDASIYVCRVEVLGLGVGTGNGTRLVVRKEHPQLGAGTHADPEAPEAEGAPSVFLFPPKPKDTLMISRTPEVTCVVVDVSHEDPEVKFNWYVDGVEVHNAKTPREEQYNSTYRVVSVLTVLHQDWLNGKEYKCKVSNKALPAPIEKTISKAKGQPREPQVYTLPPSRDELTKNQVSLTCLVKGFYPSDIAVEWESNGQPENNYKTTPPVLDSDGSFFLYSKLTVDKSRWQQGNVFSCSVMHEALHNHYTQKSLSLSPGK : 0.041

Now for a further binder.
Report glycan array binding signal (z-score) for Ficolin B (Rattus norvegicus), P57756 (protein) MVLGSAALFVLSLCVTELTLHAADTCPEVKVLDLEGSNKLTILQGCPGLPGALGPKGEAGAKGDRGESGLPGHPGKAGPTGPKGDRGEKGVRGEKGDTGPSQSCATGPRTCKELLTRGYFLTGWYTIYLPDCRPLTVLCDMDTDGGGWTVFQRRIDGTVDFFRDWTSYKQGFGSQLGEFWLGNDNIHALTTQGTNELRVDLADFDGNHDFAKYSSFQIQGEAEKYKLILGNFLGGGAGDSLTSQNNMLFSTKDQDNDQGSSNCAVRYHGAWWYSDCHTSNLNGLYLRGLHKSYANGVNWKSWKGYNYSYKVSEMKVRLI please.
1.56
